# TEST_DESCRIPTION: Apparent permeability of the compound in human Caco-2 cells at 25 uM measured after 2 hrs by LC-MS/MS analysis
# Assay type: ADME, cell-based
Papp at 2 h, 25 µM: recorded values
Number only, in ×10⁻⁶ cm/s; omit the unit.

Completed entries (count: 5):
[
  {
    "MOLECULE": "COc1cc2c(cc1OC)CN(c1cccc(O)c1)CC2",
    "Papp at 2 h, 25 µM / ×10⁻⁶ cm/s": 43.7
  },
  {
    "MOLECULE": "COc1cc2c(cc1OC)C(C)N(c1ccc(CO)cc1)CC2 (centres undefined)",
    "Papp at 2 h, 25 µM / ×10⁻⁶ cm/s": 34.4
  },
  {
    "MOLECULE": "COc1cc2c(cc1OC)CN(c1ccc(C(=O)O)cc1)CC2",
    "Papp at 2 h, 25 µM / ×10⁻⁶ cm/s": 81.2
  },
  {
    "MOLECULE": "COc1cc2c(cc1OC)C(C)N(c1ccc(F)cc1)CC2 (centres undefined)",
    "Papp at 2 h, 25 µM / ×10⁻⁶ cm/s": 8.3
  },
  {
    "MOLECULE": "COC(=O)c1ccccc1N1CCc2cc(OC)c(OC)cc2C1",
    "Papp at 2 h, 25 µM / ×10⁻⁶ cm/s": 2.1
  }
]

IN: Name the reported Papp at 2 h, 25 µM value associated with the molecule COc1cc2c(cc1OC)CN(c1ccccn1)CC2
OUT: 38.8

IN: Quick one: Papp at 2 h, 25 µM of COc1cc2c(cc1OC)CN(c1ccc(CO)cc1)CC2 ?
OUT: 26.8

IN: Quick check: Papp at 2 h, 25 µM of COc1cc2c(cc1OC)CN(c1ccc(C=O)cc1)CC2 ?
OUT: 2.8

IN: Bench note: what Papp at 2 h, 25 µM did COc1cc2c(cc1OC)C(C)N(c1ccc(C=O)cc1)CC2 (centres undefined) show?
OUT: 7.4

IN: Item under review: COc1ccc(N2CCc3cc(OC)c(OC)cc3C2)cc1 . Reported Papp at 2 h, 25 µM?
OUT: 10.1

IN: Returns the measured Papp at 2 h, 25 µM for the input molecule. Input: COc1cc2c(cc1OC)CN(c1ccccc1)CC2
OUT: 21

IN: Reported Papp at 2 h, 25 µM for COc1cc2c(cc1OC)CN(c1cccnc1)CC2 : what is it?
OUT: 39.5

IN: Can you share its Papp at 2 h, 25 µM? I mean this molecule: COc1cc2c(cc1OC)CN(c1ccc(F)cc1)CC2
OUT: 20.4

Provenance of the data: ChEMBL document CHEMBL5113541
